Listing: Tm of selected sequences
Test: melting temperature; fluorescence melt of hairpins on a sequencing array, two-state fit, raised by 9.35 °C to match UV melts
Settings: sodium 0.088 M
Your answer is read as °C, so omit the unit and give the number.

{"columns": ["sequence record", "Tm (°C)"],
 "data": [
  ["GATCTGCTTTCAGATC ((((((....))))))", 49.1],
  ["TTCACGAAAGTGAA (((((....)))))", 51],
  ["GGGTGAGGAAACTCATCC ((.((((....)))).))", 49.2],
  ["GATCTCGTCCGAGATC ((((((....))))))", 60.5]
]}

Next up:
Entry under review: GATCCCTAGCGGGATC ((((((....)))))) . Reported Tm?
59.1
